# Tested on: caterpillars of the army worm (Spodoptera frugiperda)
# assay explanation: Spodoptera frugiperda test (SPODFR spray treatment)
# Type: in vivo
# measurement setup: 100 g/ha; 7 d; spray treatment
property label: Kill rate after 7d in %
Your answer should be a number followed by the unit of measure.

Challenge: Look up caterpillars of the army worm (Spodoptera frugiperda) data: Kill rate after 7d in % of `Cc1cc(Cl)cc(C2=NOCCO2)c1NC(=O)c1cc(C(F)(F)F)nn1-c1ncccc1Cl` , then report it.
Response given: 100%

Challenge: Fill: Kill rate after 7d in % (caterpillars of the army worm (Spodoptera frugiperda)) for this molecule `Cc1cc(Cl)cc(C2=NOCCO2)c1NC(=O)c1cc(Br)cn1-c1ncccc1Cl`
Response given: 83%

Challenge: For caterpillars of the army worm (Spodoptera frugiperda), give the measured Kill rate after 7d in % of the entry `Cc1cccc(C2=NOCCN2)c1NC(=O)c1cc(Br)cn1-c1ncccc1Cl`
Response given: 100%

Challenge: State recorded Kill rate after 7d in % with caterpillars of the army worm (Spodoptera frugiperda), entry `Cc1cccc(C2=NOCCO2)c1NC(=O)c1cc(Cl)nn1-c1ncccc1Cl` , no comment.
Response given: 100%

---

# Test system: Spodoptera frugiperda larvae
# assay explanation: Spodoptera frugiperda test (treatment by watering)
# Format: in vivo
# measurement setup: 20 ppm; 14 d; treatment by watering
property label: Kill rate after 14d in % (%)
Give a bare numeral; the unit % is implied.

Challenge: Return the recorded Kill rate after 14d in % value; entry: `Cc1cccc(C2=NOCCN2)c1NC(=O)c1cc(Cl)nn1-c1ncccc1Cl`
Response given: 98

Challenge: Return the recorded Kill rate after 14d in % value; entry: `Cc1cc(Br)cc(C2=NOCCO2)c1NC(=O)c1cc(C(F)(F)F)nn1-c1ncccc1Cl`
Response given: 98

Challenge: Specify Kill rate after 14d in % for `Cc1cc(Cl)cc(C2=NOCCN2)c1NC(=O)c1cc(Br)nn1-c1ncccc1Cl` and stop.
Response given: 95

---

# assay explanation: logP determination by HPLC (reversed-phase C18), EEC Directive 79/831 Annex V.A8
# Assay type: physicochemical
# measurement setup: HPLC reversed-phase C18, 43° C., acidic range pH 2.7
property label: logP
I'd appreciate a reply containing only the number, no unit.

Challenge: For Cc1cc(I)cc(C2=NOCCN2)c1NC(=O)c1cc(Br)nn1-c1ncccc1Cl [Example I-1-23] , write its logP.
Response given: 2.21

Challenge: Kindly indicate its recorded logP. Item: Cc1cc(Br)cc(C2=NOCCO2)c1NC(=O)c1cc(C(F)(F)F)nn1-c1ncccc1Cl [Example I-1-11]
Response given: 3.58

Challenge: For the molecule O=C(Nc1c(Cl)cc(Cl)cc1C1=NOCCO1)c1cc(Br)nn1-c1ncccc1Cl [Example I-1-8] , give its reported logP.
Response given: 3.09

Challenge: Identify measured logP associated with Cc1cc(Cl)cc(C2=NOCCN2)c1NC(=O)c1cc(Br)nn1-c1ncccc1Cl [Example I-1-19]
Response given: 2.25

Challenge: Please report logP for the following molecule: Cc1cccc(C2=NOCCO2)c1NC(=O)c1cc(Cl)nn1-c1ncccc1Cl [Example I-1-7]
Response given: 2.54

Challenge: For Cc1cccc(C2=NOCCN2)c1NC(=O)c1cc(Cl)nn1-c1ncccc1Cl [Example I-1-17] , write its logP.
Response given: 1.65

Challenge: Return reported logP. Input molecule: O=C(Nc1c(Cl)cccc1C1=NOCCN1)c1cc(Br)nn1-c1ncccc1Cl [Example I-1-27]
Response given: 1.89

Challenge: Output logP of Cc1cc(Cl)cc(C2=NOCCO2)c1NC(=O)c1cc(Br)nn1-c1ncccc1Cl [Example I-1-5]
Response given: 3.13

Challenge: Identify measured logP associated with Cc1cc(Br)cc(C2=NOCCN2)c1NC(=O)c1cc(Cl)nn1-c1ncccc1Cl [Example I-1-30]
Response given: 2.35

Challenge: Annotate the molecule O=C(Nc1c(Cl)cc(Cl)cc1C1=NOCCO1)c1cc(Cl)nn1-c1ncccc1Cl [Example I-1-2] with its measured logP.
Response given: 3.07

Challenge: Tell me its logP given Cc1cc(I)cc(C2=NOCCN2)c1NC(=O)c1cc(C(F)(F)F)nn1-c1ncccc1Cl [Example I-1-24] as the entry.
Response given: 2.66

Challenge: Let me know recorded logP for Cc1cc(Cl)cc(C2=NOCCN2)c1NC(=O)c1cc(C(F)(F)F)nn1-c1ncccc1Cl [Example I-1-18] , thanks.
Response given: 2.70

Challenge: Given the molecule O=C(Nc1c(Cl)cc(Cl)cc1C1=NOCCO1)c1cc(C(F)(F)F)nn1-c1ncccn1 [Example I-1-15] , write its reported logP.
Response given: 2.80

Challenge: Find the measured logP of Cc1cc(I)cc(C2=NOCCN2)c1NC(=O)c1cc(Br)cn1-c1ncccc1Cl [Example I-1-22] and report it.
Response given: 2.39

Challenge: Give reported logP value for Cc1cccc(C2=NOCCN2)c1NC(=O)c1cc(C(F)(F)F)nn1-c1ncccc1Cl [Example I-1-16]
Response given: 1.98

Challenge: Supply logP value. Item: Cc1cc(Br)cc(C2=NOCCN2)c1NC(=O)c1cc(C(F)(F)F)nn1-c1ncccc1Cl [Example I-1-29]
Response given: 2.80

Challenge: Item Cc1cc(Cl)cc(C2=NOCCO2)c1NC(=O)c1cc(Cl)nn1-c1ncccc1Cl [Example I-1-9] : provide logP
Response given: 3.08

Challenge: Report logP, nothing else, for this molecule: Cc1cccc(C2=NOCCO2)c1NC(=O)c1cc(C(F)(F)F)nn1-c1ncccc1Cl [Example I-1-3]
Response given: 3.00

Challenge: Determine from records and report logP for Cc1cc(Cl)cc(C2=NOCCO2)c1NC(=O)c1cc(C(F)(F)F)nn1-c1ncccc1Cl [Example I-1-6]
Response given: 3.50

Challenge: Tell us which logP value is on record for O=C(Nc1c(Cl)cc(Cl)cc1C1=NOCCO1)c1cc(Br)nn1-c1c(Cl)cccc1Cl [Example I-1-13]
Response given: 3.98

Challenge: Return logP (reported value) for this molecule: Cc1cccc(C2=NOCCN2)c1NC(=O)c1cc(Br)cn1-c1ncccc1Cl [Example I-1-28]
Response given: 1.83

Challenge: Recall and state the measured logP for Cc1cccc(C2=NOCCO2)c1NC(=O)c1cc(Br)nn1-c1ncccc1Cl [Example I-1-4] .
Response given: 2.59

Challenge: Using known records, supply logP for Cc1cc(Cl)cc(C2=NOCCO2)c1NC(=O)c1cc(Br)cn1-c1ncccc1Cl [Example I-1-25]
Response given: 3.50

Challenge: Provide logP value for the following molecule: Cc1cc(Br)cc(C2=NOCCO2)c1NC(=O)c1cc(Br)nn1-c1ncccc1Cl [Example I-1-12]
Response given: 3.24

Challenge: Let me know recorded logP for Cc1cc(I)cc(C2=NOCCN2)c1NC(=O)c1cc(Cl)nn1-c1ncccc1Cl [Example I-1-26] , thanks.
Response given: 2.44

Challenge: Using known records, supply logP for O=C(Nc1c(Cl)cc(Cl)cc1C1=NOCCO1)c1cc(Br)cn1-c1ncccc1Cl [Example I-1-21]
Response given: 3.48

Challenge: Give the value of logP reported for the following: Cc1cc(Cl)cc(C2=NOCCN2)c1NC(=O)c1cc(Cl)nn1-c1ncccc1Cl [Example I-1-20]
Response given: 2.25

Challenge: Please indicate logP recorded for Cc1cc(Br)cc(C2=NOCCO2)c1NC(=O)c1cc(Cl)nn1-c1ncccc1Cl [Example I-1-10]
Response given: 3.18

Challenge: Note down logP recorded for Cc1cc(Cl)cc(C2=NOCCO2)c1NC(=O)c1cc(C(F)(F)F)nn1-c1ncccn1 [Example I-1-14]
Response given: 2.79
